ASSAY TARGET: T1, recombinant IL-3Rα ectodomain (human, UniProt P26951 19-305)
T1 construct: extracellular domain; also called recombinant IL-3Ra; biotinylated-IL-3Rα ectodomain
T1 sequence (looked up): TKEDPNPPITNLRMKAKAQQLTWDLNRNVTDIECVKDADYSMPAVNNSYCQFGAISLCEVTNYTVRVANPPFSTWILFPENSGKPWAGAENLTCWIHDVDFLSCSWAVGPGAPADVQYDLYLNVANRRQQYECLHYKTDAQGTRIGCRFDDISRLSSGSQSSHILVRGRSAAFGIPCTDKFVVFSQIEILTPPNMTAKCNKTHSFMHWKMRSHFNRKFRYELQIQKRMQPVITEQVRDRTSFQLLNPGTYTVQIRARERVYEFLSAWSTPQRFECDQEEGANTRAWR
PROTOCOL TEXT: SPR ProteOn, immobilised IL-3Rα ectodomain
VALUE TYPE: koff (s⁻¹)
# output: bare number, implied unit s⁻¹

These recorded examples may help you get a feel for the data.
| BINDER | koff, s⁻¹ |
| --- | --- |
| 51D09 (VHH) VHH: EVQLVESGGGLVQPGGSLRLSCAASGSIFSGNTMGWYRQAPGKQRELVAAISSGGSTDYADSVKGRFTISRDNSKNTVYLQMNSLRPEDTAVYYCNAAILLYRLYGYEEGDYWGLGTLVTVSS | 0.000516 |
| 55C05 (VHH) VHH: EVQLVESGGGLVPAGDSLRLSCVASGRSLNTYTMGWFRQAPGKECEFVAAINWNGVYRDYADSAKGRFTASRDNAMNTVFLQMNSLKPEDTAVYFCATATQGWDRHTEPSDFGSWGLGTQVTVSS | 0.00741 |
| 55F03 (VHH) VHH: EVQLVESGGGLVQAGGPLRLSCAASGRTFSSYVMGWFRQAPGKEREFVAAIYWSNGKTQYTDSVKGRFTISGDNAKNTVYLQMNSLNPEDTAVYYCVADKDETGFRTLPIAYDYWGLGTQVTVSS | 0.00487 |

Turning now to a further record.
Give the reported koff for this binder. 50F07 (VHH) VHH: EVQLVESGGGLVQPGGSLRLSCTGSGSTFSINAMGWYRQAPGKQRELVAAITSGGRTNYADSVKGRFTISRDNSKNTVYLQMNSLRPEDTAVYYCNARISAGTAFWLWSDYEYWGLGTLVTVSS 0.00758
